# System tested: T1, 4H2702-bA
# T1 chain: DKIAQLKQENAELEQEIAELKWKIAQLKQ
# Experimental details: two-hybrid library CCNG1;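 note: natural log of median RNA to DNA barcode read ratio; higher means stronger binding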
The entries below are paired with their reported interaction score.
A bare number is all that is needed in reply.

Check out these entries, answers already filled in.
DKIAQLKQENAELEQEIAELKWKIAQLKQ [4H2702-bA]; 1.87
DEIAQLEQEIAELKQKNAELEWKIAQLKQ [4H118-bA]; 0.439

INPUT: Request the reported interaction score associated with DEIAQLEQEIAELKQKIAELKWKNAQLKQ [4H112-bA]
OUTPUT: 0.586

INPUT: Request the reported interaction score associated with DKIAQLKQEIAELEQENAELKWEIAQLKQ [4H2586-bA]
OUTPUT: 0.531

INPUT: Request the reported interaction score associated with DENQQLEQKIQELEQKNQELKWEIQELKQ [4H1338-bN]
OUTPUT: -2.23
